tested on: human CTLA-4 (human) (UniProt P16410)
Sequence (P16410 36-223): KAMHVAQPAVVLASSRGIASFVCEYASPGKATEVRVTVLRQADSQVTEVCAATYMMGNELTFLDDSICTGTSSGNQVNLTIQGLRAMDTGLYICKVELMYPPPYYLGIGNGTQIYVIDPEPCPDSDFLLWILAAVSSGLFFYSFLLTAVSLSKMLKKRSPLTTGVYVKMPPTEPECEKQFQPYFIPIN
experiment notes: flow cytometry, Expi293F cells transfected with CTLA-4
experimental readout: MFI (MFI)
Output spec: scalar in MFI, unitless text.

Worked set:
binder | reported value
CD80 L70Q/A91G/T110A/I118V/T120S/T130A ECD-Fc (Fc fusion) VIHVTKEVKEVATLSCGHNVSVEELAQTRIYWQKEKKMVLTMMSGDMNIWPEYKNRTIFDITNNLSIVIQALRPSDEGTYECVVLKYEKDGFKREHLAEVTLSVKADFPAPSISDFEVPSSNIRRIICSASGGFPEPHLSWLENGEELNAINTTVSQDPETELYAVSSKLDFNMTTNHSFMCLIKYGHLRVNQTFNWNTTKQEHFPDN | 14
CD80 V22A/L70Q/S121P ECD-Fc (Fc fusion) VIHVTKEVKEVATLSCGHNVSAEELAQTRIYWQKEKKMVLTMMSGDMNIWPEYKNRTIFDITNNLSIVIQALRPSDEGTYECVVLKYEKDAFKREHLAEVTLSVKADFPTPSISDFEIPTPNIRRIICSTSGGFPEPHLSWLENGEELNAINTTVSQDPETELYAVSSKLDFNMTTNHSFMCLIKYGHLRVNQTFNWNTTKQEHFPDN | 7
CD80 I67T/L70Q/A91G/I118V/T120S ECD-Fc (Fc fusion) VIHVTKEVKEVATLSCGHNVSVEELAQTRIYWQKEKKMVLTMMSGDMNIWPEYKNRTIFDITNNLSTVIQALRPSDEGTYECVVLKYEKDGFKREHLAEVTLSVKADFPTPSISDFEVPSSNIRRIICSTSGGFPEPHLSWLENGEELNAINTTVSQDPETELYAVSSKLDFNMTTNHSFMCLIKYGHLRVNQTFHWNTTKQEHFPDN | 160
CD80 K36G/K37Q/M38I/L40M ECD-Fc (Fc fusion) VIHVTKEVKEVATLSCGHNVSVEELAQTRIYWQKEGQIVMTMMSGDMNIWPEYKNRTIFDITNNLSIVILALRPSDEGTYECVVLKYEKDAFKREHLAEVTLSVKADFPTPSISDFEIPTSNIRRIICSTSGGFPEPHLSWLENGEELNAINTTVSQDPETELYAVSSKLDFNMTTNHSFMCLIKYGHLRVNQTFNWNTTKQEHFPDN | 1400

MFI recorded for this binder, CD80 V4M/L70Q/A91G/I118V/T120S/T130A/K169E ECD-Fc (Fc fusion) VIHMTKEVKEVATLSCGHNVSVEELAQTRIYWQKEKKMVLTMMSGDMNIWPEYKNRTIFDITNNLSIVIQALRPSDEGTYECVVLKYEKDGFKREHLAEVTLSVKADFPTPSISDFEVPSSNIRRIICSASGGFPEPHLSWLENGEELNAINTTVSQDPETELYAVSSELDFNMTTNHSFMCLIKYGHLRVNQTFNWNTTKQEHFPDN , is 263
